System: PfSIP2 AP2 domain 1 (GST-tagged)
Experiment: gcPBM binding intensity (ln(normalized median fluorescence intensity)); higher = stronger DNA binding
Whole data set: some 25,000 sequences, median “ln(normalized median fluorescence intensity)” near 7.1, cut for the highest 2% near 10. Many of the other results were omitted from the sample, so the highest values are more common in it than they were.
Class Y: gcPBM binding intensity (ln) at least 9. Class N: gcPBM binding intensity (ln) below 9.

Check if gcPBM binding intensity (ln) >= 9 (inclusive). Item: TACCAATGCATAACGGTGCAAAAAAATAAGGAATAA
Y

Is gcPBM binding intensity (ln) at least 9? Consider ATGTTTTGTAAAATGATTAAATATTAAGATTCAATA [CACACA_negctrl_site1743]
N

Could you please find out whether ATATTATAATTGAAGGTGCAAAATGTAATATAGATA [GTGCAC_site9661] has gcPBM binding intensity (ln) that meets 9 or exceeds it?
Y

API: above_or_equal(metric=gcPBM binding intensity (ln), cutoff=9) for item TATATCTGTTTATATTGTACACATATATATATATAT [XGTACX_site714]
Y

Confirm if gcPBM binding intensity (ln) reported for the sequence AATAAAAATAATATAGTGCATAATATAAGGAAAAAA is 9 or above.
Y

Does gcPBM binding intensity (ln) meet or surpass 9 for AACATATTGGATTTAGTGCACATATATATCATAATA ?
Y

Is it the case that AATAATAAAAAAAGTGCACACACATAATATATATAT [CACACA_site9100] has gcPBM binding intensity (ln) reaching or exceeding 9?
Y

Given the entry TACGTTATATACAACTGTACTTGGATAATTATTAAC [XGTACX_site5614] , answer whether its gcPBM binding intensity (ln) meets or surpasses 9.
N

Check if gcPBM binding intensity (ln) >= 9 (inclusive). Item: AATATAATATAATGCACACATAAAAAAAAAAAAATC [CACACA_site1303]
N

Exam item: decide whether the reported gcPBM binding intensity (ln) for ATAAATAATATATATACACACATATCTATACATATT [CACACA_site487] is at least 9.
N

Tell me whether gcPBM binding intensity (ln) is at least 9 here: AATACAATAAAATAGTGTACATATATATTATGTATA [XGTACX_site8258]
N

Exam item: decide whether the reported gcPBM binding intensity (ln) for TATAATAATATAATGGTGCATGTATATAACCATATA is at least 9.
Y

Form field: gcPBM binding intensity (ln) at least 9? Entry: TGTATATAATCGAGTGCACACACAAAAAAAAAGTGA [CACACA_site8417]
Y

State whether the measured gcPBM binding intensity (ln) reaches 9, counting equality as reaching it, for ACATTCAATCTACTGTGTACATATTAAACTTTGAAA [XGTACX_site2913]
N

Kindly determine if gcPBM binding intensity (ln) recorded for TATATAATCGAGTGCACACACAAAAAAAAAGTGAAC [CACACA_site1483] is above or exactly 9.
Y

Could you please find out whether ATATAAATATAGTGTGCACACACATAATATATATAT [CACACA_site8713] has gcPBM binding intensity (ln) that meets 9 or exceeds it?
N

Is the recorded value of gcPBM binding intensity (ln) equal to or greater than 9 for this sequence? ATCATATGTATGCATACACACAAAAAGTTATTTATA [CACACA_site6325]
N

Is reported gcPBM binding intensity (ln) greater than or equal to 9 here: TTTATAATTTATATCACACACATATATATATAGTAA [CACACA_site8]
N

I'd appreciate it if you could say whether AGATATTATAATTAATGTACAAAAAGAAAAAATAGA [XGTACX_site8964] has gcPBM binding intensity (ln) at least equal to 9.
N

Is reported gcPBM binding intensity (ln) greater than or equal to 9 here: TATATATTCATAAAGTGTACATGTTTATATATATAT [XGTACX_site7585]
N

Quick check: does AAAAATAAATATATATGTACACATATGTATACAATA [XGTACX_site4692] have gcPBM binding intensity (ln) greater than or equal to 9?
N

Item TATTAATTTATTTGTTGTACGTAAATATGCTTGTTT [XGTACX_site6591] with gcPBM binding intensity (ln) of 9 or above?
N

Textbook exercise: given the entry AACAAGTTGCATGGTGCACACATGTATATATATCTA [CACACA_site2548] , state whether its gcPBM binding intensity (ln) is greater than or equal to 9.
Y

Determine whether this sequence has gcPBM binding intensity (ln) no lower than 9: ATATATCATATTATAGTGCATTTATAATAATATTAT
Y

hey, is gcPBM binding intensity (ln) for this one >= 9? TATAATAAAATTTTTACACACTTTAAAAAAAAAAAA [CACACA_site524]
N

Determine whether this sequence has gcPBM binding intensity (ln) no lower than 9: TTGCATATTTCTAATTGTACATTATTTTATTTTATA [XGTACX_site8451]
N

// inclusive: gcPBM binding intensity (ln) at least 9? input: TAGTTGCACATGTATACACACAAAAAATATTTTATG [CACACA_site475]
N

Has TTATACAGGACAATAGTGCACATAAATATATGTATA a recorded gcPBM binding intensity (ln) greater than or equal to 9?
Y

Form field: gcPBM binding intensity (ln) at least 9? Entry: ATATAGGTAAAAAGTATACACACGTTGACACATTCT [CACACA_site1199]
N

Test whether the sequence TATATAATACGAATTTGTACATATTAAATAAATTAT [XGTACX_site93] records gcPBM binding intensity (ln) of 9 or higher.
N

Textbook exercise: given the entry TTGGGTGCATATATTTGTACACATTATTTCTATTTT [XGTACX_site3688] , state whether its gcPBM binding intensity (ln) is greater than or equal to 9.
Y

Determine whether this sequence has gcPBM binding intensity (ln) no lower than 9: ATATATAATTAATTTTGTACACATAAAAAAAAAAAT [XGTACX_site6647]
N

Assess whether reported gcPBM binding intensity (ln) for AAATATAATTAATGATGTACACTTATAGATATTGAT [XGTACX_site8435] sits at 9 or higher.
N

Is gcPBM binding intensity (ln) at least 9? Consider CTTAAATTAATTTGGGTGCATATATTTGTACACATT [GTGCAC_site9948]
Y

Please tell me: is the sequence TATACCAATGAATGAGTGCAAAGAAGATAAGGAAAA at or over 9 in terms of gcPBM binding intensity (ln)?
N

Given the entry CCATATTTAATAAAATGTACTCATTCTTTTATTTTA [XGTACX_site7802] , answer whether its gcPBM binding intensity (ln) meets or surpasses 9.
N

====

Tested on: PfSIP2 AP2 domain 1 (GST-tagged)
Assay: gcPBM binding intensity (ln(normalized median fluorescence intensity)); higher = stronger DNA binding
The full ranking holds about 25,000 sequences; the median of “ln(normalized median fluorescence intensity)” is about 7.1, and the highest 2% start at about 10. The list comes from a sample in which the highest values are over-represented; it also holds close analogues and randomly drawn sequences.
Consider the following sequences; for each one, report its gcPBM binding intensity (ln).
Answer field: number only, no words.

gcPBM binding intensity (ln) lookup needed for TTAAAAGAATATAATGCACACATTATTTTATTTTAT [CACACA_site3772] , thanks.
7.03

Which gcPBM binding intensity (ln) value belongs to ATAAAATTATTATATACATGCAAAATTAATATATTG [TGCATGCA_site507] ?
6.84

// returns reported gcPBM binding intensity (ln) for input TAAAATATTTCAAAGGTGCAATGATAATTTAAGACG [GTGCAC_site9609]
10.4

Consider the sequence shown here: ATTTAAAAAAGAAAGGTGCATTTCAATAATGTAAAA [GTGCAC_site9585] What is its recorded gcPBM binding intensity (ln)?
11

Name the recorded gcPBM binding intensity (ln) for AGAATTAAAATAAAGGTGCATTTTTTTGTTTCATGT .
11
